# CONDITIONS: in 2-butanone, 293.15 K
EXPERIMENTAL ENDPOINT: solubility (mole fraction)
Enter a number only.

Q) Using the record for Cc1c(C(=O)O)cccc1[N+](=O)[O-] , state its measured solubility (mole fraction).
A) 0.0592

* * *

# CONDITIONS: in methanol, 305.65 K
EXPERIMENTAL ENDPOINT: solubility (mole fraction)

Q) Using the record for Cc1c(C(=O)O)cccc1[N+](=O)[O-] , state its measured solubility (mole fraction).
A) 0.0436

* * *

# CONDITIONS: in ethyl acetate, 313.15 K
EXPERIMENTAL ENDPOINT: solubility (mole fraction)
Enter a number only.

Q) Using the record for Cc1c(C(=O)O)cccc1[N+](=O)[O-] , state its measured solubility (mole fraction).
A) 0.0518
